- experimental_target: PLK1 (Homo sapiens, UniProt P53350)
- Construct: Full-length, active GST-PLK1 is purified from Sf9 insect cells; made in house; host or cells: Sf9 insect cells
- Sequence (P53350 whole entry): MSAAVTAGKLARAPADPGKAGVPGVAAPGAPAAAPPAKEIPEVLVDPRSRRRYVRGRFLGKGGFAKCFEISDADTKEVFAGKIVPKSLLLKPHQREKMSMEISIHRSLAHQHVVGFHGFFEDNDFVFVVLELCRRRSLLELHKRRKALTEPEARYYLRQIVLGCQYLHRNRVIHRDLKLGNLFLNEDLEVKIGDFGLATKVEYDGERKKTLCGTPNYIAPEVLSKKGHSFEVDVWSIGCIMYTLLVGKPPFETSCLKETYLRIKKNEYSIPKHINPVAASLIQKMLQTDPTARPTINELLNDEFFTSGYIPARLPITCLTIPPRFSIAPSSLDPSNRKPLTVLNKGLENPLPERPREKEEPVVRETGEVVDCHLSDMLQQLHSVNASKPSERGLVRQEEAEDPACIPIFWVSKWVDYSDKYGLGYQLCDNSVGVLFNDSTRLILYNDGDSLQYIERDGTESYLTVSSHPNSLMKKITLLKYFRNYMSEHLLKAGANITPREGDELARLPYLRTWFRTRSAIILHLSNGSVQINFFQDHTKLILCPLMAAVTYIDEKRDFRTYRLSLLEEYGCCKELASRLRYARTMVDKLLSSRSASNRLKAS
- test_summary: Biochemical Characterization Assay: HTRF kinase assay, GST-PLK1 phosphorylation of GST-p53
- run_parameters: GST-PLK1, GST-p53 substrate
pIC50: −log10 of the molar value.
List of pIC50 values.

The cases that follow already have their pIC50 on record.
molecule: CCc1cc(C(=O)NC2CCNCC2)ccc1Nc1ncc2c(n1)N(C1CCCC1)CC(F)(F)C(=O)N2C
data_value: 7.30 to 9.00

molecule: CCOc1cc(C(=O)NC2CCN(C(=O)OC(C)(C)C)CC2)ccc1Nc1ncc2c(n1)N(C1CCCC1)CC(F)(F)C(=O)N2C
data_value: 6.30 to 7.29

molecule: COc1cc(C(=O)NC2CCOCC2)ccc1Nc1ncc2c(n1)N(CCc1ccccc1)CC(F)(F)C(=O)N2C
data_value: 6.30 to 7.29

Identify pIC50 associated with the compound COc1cc(C(=O)O)ccc1Nc1ncc2c(n1)N(C1CCCCC1)CC(F)(F)C(=O)N2C
7.30 to 9.00

Identify pIC50 associated with the compound CCN1CCC(NC(=O)c2ccc(Nc3ncc4c(n3)N(C3CCCCC3)CC(F)(F)C(=O)N4C)c(OC)c2)CC1
7.30 to 9.00

Identify pIC50 associated with the compound CN(C)CCNC(=O)c1cc(F)c(Nc2ncc3c(n2)N(C2CCCC2)CC(F)(F)C(=O)N3C)cc1F
7.30 to 9.00

Identify pIC50 associated with the compound COc1cc(C(=O)NC2CCNCC2)ccc1Nc1ncc2c(n1)N(C1CCCCC1)CC(F)(F)C(=O)N2C
7.30 to 9.00

Identify pIC50 associated with the compound CNC(=O)c1ccc(Nc2ncc3c(n2)N(C2CCCC2)CC(F)(F)C(=O)N3C)c(F)c1
7.30 to 9.00

Identify pIC50 associated with the compound CCN1CCC(NC(=O)c2cc(F)c(Nc3ncc4c(n3)N(C3CCCC3)CC(F)(F)C(=O)N4C)cc2F)CC1
7.30 to 9.00

Identify pIC50 associated with the compound Cc1cc(C(=O)NC2CCNCC2)ccc1Nc1ncc2c(n1)N(C1CCCC1)CC(F)(F)C(=O)N2C
7.30 to 9.00

Identify pIC50 associated with the compound CCc1cc(C(=O)NC2CCN(C(=O)OC(C)(C)C)CC2)ccc1Nc1ncc2c(n1)N(C1CCCC1)CC(F)(F)C(=O)N2C
6.30 to 7.29

Identify pIC50 associated with the compound CN(C)CCNC(=O)c1ccc(Nc2ncc3c(n2)N(C2CCCC2)CC(F)(F)C(=O)N3C)c(F)c1
7.30 to 9.00

Identify pIC50 associated with the compound COc1cc(C(=O)O)ccc1Nc1ncc2c(n1)N(CCCc1ccccc1)CC(F)(F)C(=O)N2C
6.30 to 7.29

Identify pIC50 associated with the compound COc1cc(C(=O)NC2CCOCC2)c(F)cc1Nc1ncc2c(n1)N(C1CCCC1)CC(F)(F)C(=O)N2C
7.30 to 9.00

Identify pIC50 associated with the compound CCOc1cc(C(=O)NCCN(C)C)ccc1Nc1ncc2c(n1)N(C1CCCC1)CC(F)(F)C(=O)N2C
7.30 to 9.00

----------
- experimental_target: PLK1 (Homo sapiens, UniProt P53350)
- Construct: Full-length, active GST-PLK1 is purified from Sf9 insect cells; made in house; host or cells: Sf9 insect cells
- test_summary: Biochemical Characterization Assay: HTRF kinase assay, GST-PLK1 phosphorylation of GST-p53
- run_parameters: GST-PLK1, GST-p53 substrate, ATP
readout_kind: IC50

molecule: CN1C(=O)C(F)(F)CN(C2CCC2)c2nc(Nc3ccc(C(=O)N4CCC(N)CC4)cc3)ncc21 [Example I-15]
experimental_target: PLK1 (Homo sapiens, UniProt P53350)
data_value: 51 to 500 nM
--
molecule: COc1cc(C(=O)NCC(O)CN2CCNCC2)ccc1Nc1ncc2c(n1)N(C1CCCC1)CC(F)(F)C(=O)N2C (stereo not shown) [Example I-121]
experimental_target: PLK1 (Homo sapiens, UniProt P53350)
data_value: 1 to 50 nM
--
molecule: CN1C(=O)C(F)(F)CN(C2CCC2)c2nc(Nc3ccc(C(=O)O)cc3)ncc21 [Example I-11]
experimental_target: PLK1 (Homo sapiens, UniProt P53350)
data_value: 51 to 500 nM
--
molecule: COc1cc(C(=O)N[C@H]2CN(C(=O)OCc3ccccc3)CC[C@@H]2OC)ccc1Nc1ncc2c(n1)N(C1CCCC1)CC(F)(F)C(=O)N2C (racemic) [Example I-58]
experimental_target: PLK1 (Homo sapiens, UniProt P53350)
data_value: 51 to 500 nM
--
molecule: COc1cc(C(=O)NC2CCCCC2)ccc1Nc1ncc2c(n1)N(C1CCCC1)CC(F)(F)C(=O)N2C [Example I-27]
experimental_target: PLK1 (Homo sapiens, UniProt P53350)
data_value: 1 to 50 nM

Identify IC50 associated with the molecule COc1cc(C(=O)NCCCN(C)C)ccc1Nc1ncc2c(n1)N(C1CCCC1)CC(F)(F)C(=O)N2C [Example I-78]
1 to 50 nM

Identify IC50 associated with the molecule COc1cc(C(=O)N2CCC(N)CC2)ccc1Nc1ncc2c(n1)N(C1CCC1)CC(F)(F)C(=O)N2C [Example I-6]
51 to 500 nM

Identify IC50 associated with the molecule COc1cc(C(=O)N[C@@H]2CN3CCC2CC3)ccc1Nc1ncc2c(n1)N(C1CCCC1)CC(F)(F)C(=O)N2C [Example I-107]
1 to 50 nM

Identify IC50 associated with the molecule COc1cc(C(=O)NC2CCN(C3CC3)CC2)ccc1Nc1ncc2c(n1)N(C1CCCC1)CC(F)(F)C(=O)N2C [Example I-66]
1 to 50 nM

Identify IC50 associated with the molecule COc1cc(C(=O)NCCNc2ccccc2)ccc1Nc1ncc2c(n1)N(C1CCCC1)CC(F)(F)C(=O)N2C [Example I-119]
51 to 500 nM

Identify IC50 associated with the molecule CN(C)CCCNC(=O)c1ccc(Nc2ncc3c(n2)N(C2CCCC2)CC(F)(F)C(=O)N3)cc1 [Example I-135]
500 to 5000 nM

----------
List of pIC50 values.
- experimental_target: PLK1 (Homo sapiens, UniProt P53350)
- Construct: Full-length, active GST-PLK1 is purified from Sf9 insect cells; made in house; host or cells: Sf9 insect cells
- test_summary: Biochemical Characterization Assay: HTRF kinase assay, GST-PLK1 phosphorylation of GST-p53
- run_parameters: GST-PLK1, GST-p53 substrate, ATP
pIC50: −log10 of the molar value.

compound: CCN1C(=O)C(F)(F)CN(C2CCCC2)c2nc(Nc3ccc(C(=O)NCCCN(C)C)cc3)ncc21
data_value: 5.30 to 6.30
//
compound: COc1cc(C(=O)N[C@@H]2CCN(C(=O)OC(C)(C)C)C[C@@H]2OC)ccc1Nc1ncc2c(n1)N(C1CCCC1)CC(F)(F)C(=O)N2C (racemic)
data_value: 7.30 to 9.00

Pending compound:
Identify pIC50 associated with the compound COc1cc(C(=O)N[C@H]2CCNC2)ccc1Nc1ncc2c(n1)N(C1CCCC1)CC(F)(F)C(=O)N2C
7.30 to 9.00

----------
- experimental_target: PLK1 (Homo sapiens, UniProt P53350)
- Construct: Full-length, active GST-PLK1 is purified from Sf9 insect cells; made in house; host or cells: Sf9 insect cells
- test_summary: Biochemical Characterization Assay: HTRF kinase assay, GST-PLK1 phosphorylation of GST-p53
- run_parameters: GST-PLK1, GST-p53 substrate, ATP
readout_kind: IC50

The cases that follow already have their IC50 on record.
molecule: COc1cc(C(=O)NCCCO)ccc1Nc1ncc2c(n1)N(C1CCCC1)CC(F)(F)C(=O)N2C
data_value: 0.001 to 0.05 µM
--
molecule: COc1cc(C(=O)NCc2ccccn2)ccc1Nc1ncc2c(n1)N(C1CCCC1)CC(F)(F)C(=O)N2C
data_value: 0.001 to 0.05 µM

Pending compound:
Report IC50 from PLK1 (Homo sapiens, UniProt P53350) testing of CCN1C(=O)C(F)(F)CN(C2CCCC2)c2nc(Nc3ccc(C(=O)NC)cc3)ncc21
0.5 to 5 µM

----------
- experimental_target: PLK1 (Homo sapiens)
- Construct: Full-length, active GST-PLK1 is purified from Sf9 insect cells; made in house; host or cells: Sf9 insect cells
- test_summary: Biochemical Characterization Assay: HTRF kinase assay, GST-PLK1 phosphorylation of GST-p53
- run_parameters: GST-PLK1, GST-p53 substrate
pIC50: −log10 of the molar value.
List of pIC50 values.

The cases that follow already have their pIC50 on record.
compound: COc1cc(C(=O)NC2CCN(C)CC2)ccc1Nc1ncc2c(n1)N([C@@H]1C[C@H]1c1ccccc1)CC(F)(F)C(=O)N2C (relative stereo) [Example I-288]
experimental_target: PLK1 (Homo sapiens)
readout_kind: pIC50
data_value: 6.30 to 7.29
//
compound: CCOc1cc(C(=O)NC)ccc1Nc1ncc2c(n1)N(C1CCCC1)CC(F)(F)C(=O)N2C [Example I-220]
experimental_target: PLK1 (Homo sapiens)
readout_kind: pIC50
data_value: 7.30 to 9.00

Identify pIC50 associated with the compound COc1cc(C(=O)NC2CCN(C)CC2)ccc1Nc1ncc2c(n1)N(CCOc1ccccc1)CC(F)(F)C(=O)N2C [Example I-304]
6.30 to 7.29

Identify pIC50 associated with the compound CCOc1cc(C(=O)NCCCN(C)C)ccc1Nc1ncc2c(n1)N(C1CCCC1)CC(F)(F)C(=O)N2C [Example I-219]
7.30 to 9.00

Identify pIC50 associated with the compound COc1cc(C(=O)NCCCN(C)C)ccc1Nc1ncc2c(n1)N(CCc1cccs1)CC(F)(F)C(=O)N2C [Example I-273]
7.30 to 9.00

Identify pIC50 associated with the compound CN1CCC(NC(=O)c2ccc(Nc3ncc4c(n3)N(C3CCCCC3)CC(F)(F)C(=O)N4C)cc2)CC1 [Example I-262]
7.30 to 9.00

Identify pIC50 associated with the compound Cc1cc(C(N)=O)ccc1Nc1ncc2c(n1)N(C1CCCC1)CC(F)(F)C(=O)N2C [Example I-193]
7.30 to 9.00
